pEC50 reference
SUBJECT_OF_TEST: T1, human PSMA on PSMA-expressing cells (human, UniProt Q04609 1-750)
T1 construct: Cell line is named under assay or readout in each row; also called B16F10.9/hPSMA; B16F10.9/PSMA
TEST: FACS on B16F10.9/PSMA cells
Lab note — pEC50 values are minus log10 of concentrations in M.

BINDER: BSPSMA/CD3-300 (bispecific antibody, IgG4, V domains shown, modified (chimeric) IgG4 Fc domain; also called PSMA-VH-11810 x CD3-VH-G3) VH 1: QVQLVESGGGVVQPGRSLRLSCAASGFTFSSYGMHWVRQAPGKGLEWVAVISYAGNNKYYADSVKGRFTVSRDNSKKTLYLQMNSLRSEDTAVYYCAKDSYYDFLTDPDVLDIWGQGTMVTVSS VH 2: EVQLVESGGGLVQPGRSLRLSCAASGFTFDDYSMHWVRQAPGKGLEWVSGISWNSGSIGYADSVKGRFTISRDNAKNSLYLQMNSLRAEDTALYYCAKDGSGYGYFYYYGMDVWGQGTTVTVSS VL: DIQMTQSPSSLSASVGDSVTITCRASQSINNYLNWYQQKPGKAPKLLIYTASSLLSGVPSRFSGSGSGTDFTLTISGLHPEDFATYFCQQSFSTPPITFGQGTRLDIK
pEC50: 8.72

Query block: What value of pEC50 has been reported for the following binder? BSPSMA/CD3-1200 (bispecific antibody, IgG4, V domains shown, modified (chimeric) IgG4 Fc domain; also called PSMA-VH-11810 x CD3-VH-G12) VH 1: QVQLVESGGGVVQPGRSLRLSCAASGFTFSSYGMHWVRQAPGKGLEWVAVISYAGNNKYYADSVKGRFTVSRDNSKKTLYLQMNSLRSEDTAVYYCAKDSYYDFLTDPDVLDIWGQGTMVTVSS VH 2: EVQLVESGGGLVQPGRSLRLSCAASGFTFDDYSMHWVRQAPGKGLEWVSGISWNSGSIGYADSVKGRFTISRDNAKNSLYLQMNSLRAEDTALYYCAKDGSGYGKFYHYGLDVWGQGTTVTVSS VL: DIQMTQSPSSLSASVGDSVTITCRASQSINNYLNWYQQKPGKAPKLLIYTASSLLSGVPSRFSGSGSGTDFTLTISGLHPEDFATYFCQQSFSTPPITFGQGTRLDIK
Result block: 8.94
